biological target: Inadl_10, Q8NI35; assay: holdup assay; set-up: key: below the threshold = too weak to quantify, mostly under pKd 3.1 to 4; settings: plain residues with an end cap or a label only (N-terminal biotin on a linker: ado-ado)
Sequence (Q8NI35 1673-1763): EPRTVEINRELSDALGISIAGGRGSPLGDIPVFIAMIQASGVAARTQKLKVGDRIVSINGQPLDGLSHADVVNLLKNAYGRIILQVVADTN
PROPERTY LABEL: pKd

1. KPGKGSETVV [FZD4, Q9ULV1]
below the threshold
2. TISFTQTSQF [SLC1A1, P43005]
below the threshold
3. NVYGIESVKI [GRIA2, P42262]
below the threshold
4. QRPYRRGSEI [KCNJ18, B7U540]
below the threshold
5. VKRNSKETVV [MARCHF3, Q86UD3]
below the threshold
6. SPDRDRESIV [SCN5A, Q14524]
below the threshold
7. KKMLQRRTLL [OR8G1, Q15617]
below the threshold
8. PSHPRLQTHV [KIRREL2, Q6UWL6]
below the threshold
9. LPAVCYDIDI [PTTG2, Q9NZH5]
below the threshold
10. MQHQRTHTRV [ZSCAN30, Q86W11]
below the threshold
11. PTPDLPQTRV [KLHDC7A, Q5VTJ3]
below the threshold
12. PSVGSKKTVL [REELD1, A0A1B0GV85]
below the threshold
13. RDPPAEWTRV [PTPN18, Q99952]
3.61

Data provenance: paper PMC9482650
